tested on: Bacillus subtilis ssp. shriramensis (MTCC-5674); test: Antibiotic sensitivity test (antibiotic discs on T3 agar); assay type: cell-based; details: antibiotic disc on T3 agar, 30° C. for 24 hours
Positions of bridges follow the written chain, without caps; N, C: chain ends. Non-standard residues stand in square brackets, D forms with d. Residues, ends and D or L forms follow the SMILES beside them. *: point of attachment. Ileψ(thiazoline)Cys = CC[C@H](C)[C@H](N)C1=N[C@H](C(=O)*)CS1; dOrn = NCCC[C@@H](N)C(=O)O
Outcome label depends on Zone relative to 20 mm: at/above gives rule met, below gives rule not met.

Compound	Class
CC1(C)S[C@@H]2[C@H](NC(=O)C(C(=O)O)c3ccccc3)C(=O)N2[C@H]1C(=O)O (some centres unmarked) [Carbenicillin]	rule not met
CCN1CCN(c2cc3c(cc2F)c(=O)c(C(=O)O)cn3C2CC2)CC1 [Enrofloxacin]	rule met
CCC[C@@H]1C[C@@H](C(=O)N[C@@H]([C@H]2O[C@H](SC)[C@H](O)[C@@H](O)[C@H]2O)[C@@H](C)O)N(C)C1 [Lincomycin]	rule not met
Cc1noc(NS(=O)(=O)c2ccc(N)cc2)c1C [Sulfisoxazole]	rule met
NC[C@H]1O[C@H](O[C@H]2[C@H](O)[C@@H](O[C@H]3O[C@H](CO)[C@@H](O)[C@H](N)[C@H]3O)[C@H](N)C[C@@H]2N)[C@H](N)C[C@@H]1O [Tobramycin]	rule not met
CO[C@@H]1[C@@H](OC(N)=O)[C@@H](O)[C@H](Oc2ccc3c(O)c(NC(=O)c4ccc(O)c(CC=C(C)C)c4)c(=O)oc3c2C)OC1(C)C [Novobiocin]	rule met
NC[C@H]1O[C@H](O[C@H]2[C@H](O)[C@@H](O[C@H]3O[C@H](CO)[C@@H](O)[C@H](N)[C@H]3O)[C@H](N)C[C@@H]2N)[C@H](O)[C@@H](O)[C@@H]1O [Kanamycin]	rule not met
O=C(N[C@H](CO)[C@H](O)c1ccc([N+](=O)[O-])cc1)C(Cl)Cl [Chloramphenicol]	rule met
CCC[C@@H]1C[C@@H](C(=O)N[C@@H]([C@H]2O[C@H](SC)[C@H](O)[C@@H](O)[C@H]2O)[C@H](C)Cl)N(C)C1 [Clindamycin]	rule not met
[H]/N=C(/N)N[C@H]1[C@H](O)[C@@H](O)[C@H](O[C@@H]2O[C@@H](C)[C@](O)(C=O)[C@H]2O[C@@H]2O[C@@H](CO)[C@H](O)[C@@H](O)[C@@H]2NC)[C@@H](N/C(N)=N\[H])[C@@H]1O [Streptomycin]	rule not met
CC[C@H](C)[C@H](N)C1=N[C@H](C(=O)N[C@@H](CC(C)C)C(=O)N[C@H](CCC(=O)O)C(=O)N[C@H](C(=O)N[C@H]2CCCCNC(=O)[C@H](CC(N)=O)NC(=O)[C@@H](CC(=O)O)NC(=O)[C@H](Cc3cnc[nH]3)NC(=O)[C@@H](Cc3ccccc3)NC(=O)[C@H]([C@@H](C)CC)NC(=O)[C@@H](CCCN)NC2=O)[C@@H](C)CC)CS1 [Bacitracin] ({Ileψ(thiazoline)Cys}-L[dE]IK[dOrn]I[dF]H[dD]N; lactam 4-C)	rule met
CC1(C)S[C@@H]2[C@H](NC(=O)[C@H](N)c3ccc(O)cc3)C(=O)N2[C@H]1C(=O)O [Amoxicillin]	rule not met
CO/N=C(\C(=O)N[C@@H]1C(=O)N2C(C(=O)O)=C(CSc3nc(=O)c(=O)[nH]n3C)CS[C@H]12)c1csc(N)n1 [Ceftriaxone]	rule met
CC1(C)S[C@@H]2[C@H](NC(=O)[C@H](N)c3ccccc3)C(=O)N2[C@H]1C(=O)O [Ampicillin]	rule not met
Cc1onc(-c2ccccc2)c1C(=O)N[C@@H]1C(=O)N2[C@@H]1SC(C)(C)[C@@H]2C(=O)O [Oxacillin]	rule not met
NCC[C@H](O)C(=O)N[C@@H]1C[C@H](N)[C@@H](O[C@H]2O[C@H](CN)[C@@H](O)[C@H](O)[C@H]2O)[C@H](O)[C@H]1O[C@H]1O[C@H](CO)[C@@H](O)[C@H](N)[C@H]1O [Amikacin]	rule not met
CC[C@H]1OC(=O)[C@H](C)[C@@H](O[C@H]2C[C@@](C)(OC)[C@@H](O)[C@H](C)O2)[C@H](C)[C@@H](O[C@@H]2O[C@H](C)C[C@H](N(C)C)[C@H]2O)[C@](C)(O)C[C@@H](C)C(=O)[C@H](C)[C@@H](O)[C@]1(C)O [Erythromycin]	rule not met
CC[C@H]1OC(=O)[C@H](C)[C@@H](O[C@H]2C[C@@](C)(OC)[C@@H](O)[C@H](C)O2)[C@H](C)[C@@H](O[C@@H]2O[C@H](C)C[C@H](N(C)C)[C@H]2O)[C@](C)(O)C[C@@H](C)CN(C)[C@H](C)[C@@H](O)[C@]1(C)O [Azithromycin]	rule not met
CC(=O)OCC1=C(C(=O)O)N2C(=O)[C@@H](NC(=O)Cc3cccs3)[C@H]2SC1 [Cephalothin]	rule met

Every entry's value here was drawn from patent US10327448B2.
